Reference source: patent US8008547B2

TEST_PROTOCOL: Standard protocol for determination of kcat and KM (continuous spectrophotometric assay, Acetyl CoA hydrolysis at 235 nm)
Type: biochemical
EXPERIMENTAL_SETUP: purified protein; about 23° C.; 20 mM HEPES pH 6.8, 10% ethylene glycol, 0.2 mM acetyl CoA
Method: KM was calculated from the initial reaction rates obtained from concentrations of glyphosate ranging from 0.125 to 10 mM, using the Lineweaver-Burke transformation of the Michaelis-Menten equation. kcat/KM was determined by dividing the value determined for kcat by the value determined for KM. Using this methodology, kinetic parameters for a number of GAT polypeptides exemplified herein were determined. […]
OUTCOME_MEASURE: Kcat

These solved cases illustrate the format of a correct answer.
{"MOLECULE": "SEQ ID NO: 299: GAT polypeptide (protein, 13_12G12, GAT polypeptide) MIEVKPINAEDTYEIRHRILRPNQPLEACMYETDLLGGTFHLGGYYRGKLISIASFNQAEHPELEGQKQYQLRGMATLEEYREQKAGSTLIRHAEELLRKKGADLLWCNARTSASGYYKKLGFSEQGEVYDIPPVGPHILMHKKLT", "Kcat": "0.602 s⁻¹"}
{"MOLECULE": "SEQ ID NO: 339: GAT polypeptide (protein, 15_9F6, GAT polypeptide) MIEVKPINAEDTYEIRHRILRPNQPLEACKYETDLLGGTFHLGGYYRGKLISIASFHQAEHPELEGQKQYQLRGMATLEEYREQKAGSTLIRHAEELLRRKGADLLWCNARTSASGYYKKLGFSEQGEVYDIPPVGPHILMYKKLT", "Kcat": "0.993 s⁻¹"}
{"MOLECULE": "SEQ ID NO: 432: GAT polypeptide (protein, 9_4H10, GAT polypeptide) MIEVKPINAEDTYEIRHRILRPNQPLEACKYETDLLGGTLHLGGYYRGKLISIASFHQAEHPELEGQKQYQLRGMATLEGYREQKAGSTLIRHAEELLRKKGADLIWCNARTSASGYYKKLGFSEQGEVYDIPPVGPHILMYKKLT", "Kcat": "1.688 s⁻¹"}
{"MOLECULE": "SEQ ID NO: 301: GAT polypeptide (protein, 13_7A7, GAT polypeptide) MIEVKPINAEDTYEIRHRILRPNQPLEACMYETDLLRSAFHLGGYYRGKLISIASFHQAEHPELEGQKQYQLRGMATLEEYREQKAGSTLIRHAEELLRKKGADLLWCNARTSASGYYKKLGFSEQGEVYDTPPVGPHILMYKKLT", "Kcat": "1.95 s⁻¹"}
{"MOLECULE": "SEQ ID NO: 388: GAT polypeptide (protein, 6_19A10, GAT polypeptide) MIEAKPINAEDTYEIRHRILRPNQPLEACMYETDLLGGTFHLGGYYRGKLISIASFHQAEHPELEGQKQYQLRGMATLEGYREQKAGSTLIRHAEELLRKKGADLLWCNARTSASGYYKKLGFSEQGEVYDIPPTGPHILMYKKLT", "Kcat": "1.45 s⁻¹"}

Now let's try a different one.
IN: Give the measured Kcat of SEQ ID NO: 325: GAT polypeptide (protein, 15_10C2, GAT polypeptide) MIEVKPINAEDTYEIRHRILRPNQPLEACKYETDLLRGAFHLGGYYRGKLVSIASFHQAEHPELEGQKQYQLRGMATLEGYREQKAGSTLIRHAEELLRKKGADLLWCNARTTASGYYKKLGFSEQGEVFDIPPTGPHILMYKKLT .
OUT: 1.16 s⁻¹
